- assayed_target: Rac GTPase-activating protein 1 (Homo sapiens) (UniProt Q9H0H5)
- Sequence (Q9H0H5 whole entry, looked up): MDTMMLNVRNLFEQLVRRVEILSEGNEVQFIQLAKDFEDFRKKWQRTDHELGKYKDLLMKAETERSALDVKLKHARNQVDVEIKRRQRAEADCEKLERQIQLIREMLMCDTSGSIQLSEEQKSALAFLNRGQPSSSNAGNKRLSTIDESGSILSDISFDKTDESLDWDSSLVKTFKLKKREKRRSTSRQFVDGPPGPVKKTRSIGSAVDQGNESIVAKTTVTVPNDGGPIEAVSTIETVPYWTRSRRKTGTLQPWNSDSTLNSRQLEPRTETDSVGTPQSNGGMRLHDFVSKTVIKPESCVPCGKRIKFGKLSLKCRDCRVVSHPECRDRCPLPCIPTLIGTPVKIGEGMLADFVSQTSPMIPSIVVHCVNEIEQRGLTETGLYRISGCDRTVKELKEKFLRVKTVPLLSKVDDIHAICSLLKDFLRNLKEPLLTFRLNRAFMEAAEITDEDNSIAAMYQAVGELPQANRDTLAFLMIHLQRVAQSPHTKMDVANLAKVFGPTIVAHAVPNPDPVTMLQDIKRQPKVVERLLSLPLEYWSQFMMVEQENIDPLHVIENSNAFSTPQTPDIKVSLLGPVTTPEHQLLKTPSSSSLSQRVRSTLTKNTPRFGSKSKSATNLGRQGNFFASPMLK
- experiment: blockers of MgcRacGAP-driven Rac1 GTP hydrolysis – biochemical, ADP Hunter fluorescence, primary and confirmatory, confirmation (AID 624330);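 further: fluorescence reports GDP produced by GAP-driven GTP hydrolysis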
- measurement_conditions: MgcRacGAP-stimulated Rac1 GTP hydrolysis, at 30 µM, active compounds read high, GST-tagged Rac1 F28L mutant substrate
About 2,100 (0.62%) of roughly 340,000 compounds were called active. Not all results are given here. Measured potencies and affinities stand elsewhere.
Answer each item with its documented inhibition.
Numbers only, in %.

Answered examples (5):
1) CCN(CC)CCNS(=O)(=O)c1ccc(Cl)cc1 = 5.79
2) CN(Cc1ccccc1)C(=O)CCC1CCN(C(=O)c2ccccc2C(F)(F)F)CC1 = -5.88
3) C=CCNC(=O)c1n[nH]c2c1CC(C(C)(C)CC)CC2 (stereo unspecified) = 8.27
4) CN1CCN(CC(=O)NN(Cc2ccccc2)c2ccccc2)CC1 = 31.6
5) N#Cc1cc([N+](=O)[O-])ccc1NCCCn1ccnc1 = -2.38

Hello, I would appreciate it if you could give inhibition for each entry below.
1. O=C(CN1CCOc2ccccc21)NCc1ccccc1
2. CCCc1cc(=O)n2nc(N3CCC(C(=O)NCc4ccco4)CC3)sc2n1

Reply text:
1. -7.36
2. 4.69

Hello, I would appreciate it if you could give inhibition for each entry below.
1. CCN(CC(=O)NC(=O)NCc1ccccc1)Cc1ccccc1
2. Cc1cc(OC(C)C(=O)NCCCN2CCOCC2)c2c(C)cc(=O)oc2c1 (stereo unspecified)
3. Cc1nc2ncnn2c(C)c1Cc1cccc(C(F)(F)F)c1

Reply text:
3.08
5.41
5.74

Inquiry: Need inhibition, item `CCOC(=O)c1c(N2C(=O)Nc3ccccc3N2O)sc2c1CCCCC2`
Reply text: 14.2

====

Answer each item with its documented inhibition.
- assayed_target: Rac GTPase-activating protein 1 (Homo sapiens) (UniProt Q9H0H5)
- experiment: blockers of MgcRacGAP-driven Rac1 GTP hydrolysis – biochemical, ADP Hunter fluorescence, primary and confirmatory, confirmation (AID 624330);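 further: fluorescence reports GDP produced by GAP-driven GTP hydrolysis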
- measurement_conditions: MgcRacGAP-stimulated Rac1 GTP hydrolysis, at 30 µM, active compounds read high, GST-tagged Rac1 F28L mutant substrate
Out of some 340,000 compounds screened, about 2,100 (0.62%) were called active. These entries were drawn from the full list. Potency and affinity values are given separately.

1) CCN1CCN(CC(=O)N2c3ccccc3CC2C)CC1 (stereo unspecified) = 22.6% (inactive)

Hello, I would appreciate it if you could give inhibition for each entry below.
1. CC1Cc2ccccc2N1C(=O)CN1CCCCC1 (stereo unspecified)
2. CCN=C1S/C(=C\c2sccc2C)C(=O)N1CC
3. CCn1c(C)nc2cc(C(=O)N/N=C/c3ccc(O)c(O)c3O)ccc21
4. CCn1c(C)nc2cc(C(=O)N/N=C/c3ccc(N4CCOCC4)cc3)ccc21

Reply text:
2.91% (inactive)
8.79% (inactive)
-97% (inactive)
9.18% (inactive)

Hello, I would appreciate it if you could give inhibition for each entry below.
1. CCn1c(C)nc2cc(C(=O)N/N=C/c3ccccc3)ccc21
2. CCn1c(C)nc2cc(C(=O)N/N=C/c3cccc(OC)c3O)ccc21
3. O=C(C[C@@H]1C[C@@H]2c3cc(NS(=O)(=O)c4ccc(F)cc4)ccc3O[C@@H]2[C@@H](CO)O1)NC1CCCCC1
4. CCn1c(C)nc2cc(C(=O)N/N=C/c3ccccc3C)ccc21

Reply text:
1. 12.6% (inactive)
2. 15% (inactive)
3. 7.42% (inactive)
4. 4.28% (inactive)

Hello, I would appreciate it if you could give inhibition for each entry below.
1. Cc1ccc(C)c(NC(=O)CN(C)C(=O)c2cc([N+](=O)[O-])ccc2N2CCOCC2)c1
2. CCn1c(C)nc2cc(C(=O)NN=Cc3ccc([N+](=O)[O-])cc3)ccc21

Reply text:
1. 5.45% (inactive)
2. 8.03% (inactive)
